FYI, the data here is from patent US20120214784A1.

test-system: human ERG (hERG) K+ channel (Homo sapiens)
Sequence (Q12809 whole entry): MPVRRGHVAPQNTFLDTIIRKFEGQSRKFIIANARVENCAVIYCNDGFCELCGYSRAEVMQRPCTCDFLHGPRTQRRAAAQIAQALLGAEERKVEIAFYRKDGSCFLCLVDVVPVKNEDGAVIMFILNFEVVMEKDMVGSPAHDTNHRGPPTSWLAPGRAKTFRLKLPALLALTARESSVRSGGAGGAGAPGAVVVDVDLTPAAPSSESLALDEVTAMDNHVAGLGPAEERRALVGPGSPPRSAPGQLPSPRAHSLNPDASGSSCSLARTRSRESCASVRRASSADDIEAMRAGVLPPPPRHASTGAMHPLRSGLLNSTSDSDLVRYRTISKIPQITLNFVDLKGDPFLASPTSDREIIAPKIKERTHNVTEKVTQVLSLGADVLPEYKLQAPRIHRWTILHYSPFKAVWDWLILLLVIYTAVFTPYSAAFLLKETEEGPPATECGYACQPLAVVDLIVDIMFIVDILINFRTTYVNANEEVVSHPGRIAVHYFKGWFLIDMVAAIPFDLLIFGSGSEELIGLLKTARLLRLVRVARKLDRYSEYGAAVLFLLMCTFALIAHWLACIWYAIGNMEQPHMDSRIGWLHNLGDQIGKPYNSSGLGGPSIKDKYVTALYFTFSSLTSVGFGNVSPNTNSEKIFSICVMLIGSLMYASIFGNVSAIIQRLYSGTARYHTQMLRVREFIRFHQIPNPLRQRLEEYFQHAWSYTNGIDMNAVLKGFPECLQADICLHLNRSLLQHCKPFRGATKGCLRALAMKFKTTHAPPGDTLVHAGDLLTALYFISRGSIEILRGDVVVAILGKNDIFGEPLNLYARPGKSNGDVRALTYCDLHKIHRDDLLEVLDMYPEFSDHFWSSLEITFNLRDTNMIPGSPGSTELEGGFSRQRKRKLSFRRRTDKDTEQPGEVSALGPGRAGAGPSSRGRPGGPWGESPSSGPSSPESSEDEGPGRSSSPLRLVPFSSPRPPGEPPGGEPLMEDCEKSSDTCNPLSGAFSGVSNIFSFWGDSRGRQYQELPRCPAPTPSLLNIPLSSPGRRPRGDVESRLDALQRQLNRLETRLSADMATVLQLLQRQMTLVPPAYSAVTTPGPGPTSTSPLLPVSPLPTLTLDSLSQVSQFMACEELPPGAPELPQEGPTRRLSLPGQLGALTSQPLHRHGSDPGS
protocol-description: hERG channel [3H]astemizole binding assay
cond: HEK293 cells expressing cloned hERG, [3H]astemizole 2 nM; read-out: Ki for hERG K+ channel
endpoint: Ki (nM)
Just the number please, in nM, no unit attached.

Query: Ki; subject: Cc1nn(-c2c(F)cccc2F)cc1CN1CCC2(CC1)OCC(F)(F)c1cc(Cl)sc12.O=C(O)C(O)C(O)C(=O)O [Example 2] 2890

====

test-system: Mu Opioid (Homo sapiens)
protocol-description: Radioligand binding selectivity
Procedure: Radioligand binding assays are commonly used to determine the affinity (Ki) or potency of a compound to bind to a particular receptor or target protein. […] Filtermats are then dried and imbedded with Meltilex scintillant A and the radioactivity counted in a Wallac Microbeta scintillation counter. Specific binding is determined by displacement with 100 nM unlabeled nociceptin. […]
pKi: −log10 of the molar value.
endpoint: pKi

Query: pKi; subject: Cc1nn(-c2c(F)cccc2F)cc1CN1CCC2(CC1)OCC(F)(F)c1cc(Cl)sc12.O=C(O)C(O)C(O)C(=O)O [Example 2] < 6.33

====

test-system: 5-HT1D (Homo sapiens, UniProt P28221)
Sequence (P28221 whole entry, species assumed): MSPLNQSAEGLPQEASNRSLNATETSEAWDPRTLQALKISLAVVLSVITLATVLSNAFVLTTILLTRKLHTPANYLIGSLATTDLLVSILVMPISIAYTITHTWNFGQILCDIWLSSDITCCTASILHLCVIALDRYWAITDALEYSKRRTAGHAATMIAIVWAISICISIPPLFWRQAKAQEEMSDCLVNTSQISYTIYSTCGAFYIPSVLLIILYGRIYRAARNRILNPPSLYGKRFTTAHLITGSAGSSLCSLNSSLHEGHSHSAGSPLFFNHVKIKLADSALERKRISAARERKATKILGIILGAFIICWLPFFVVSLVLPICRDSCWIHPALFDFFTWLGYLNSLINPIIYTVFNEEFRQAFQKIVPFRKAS
protocol-description: Radioligand binding selectivity
cond: 5-HT1D; read-out: Ki
endpoint: Ki

Query: Ki; subject: OCc1nn(-c2c(F)cccc2F)cc1CN1CCC2(CC1)OCC(F)(F)c1cc(Cl)sc12 [Example 50] > 8.55 µM

====

In this section, each of the molecules is paired with its reported receptor occupancy at 3 mg/kg.
test-system: nociceptin/ORL1 receptors (Rattus norvegicus, UniProt P35370)
Construct: rats are sacrificed by cervical dislocation and the hypothalamus is removed; from tissue; host or cells: rat hypothalamus (in vivo occupancy)
Sequence (P35370 whole entry): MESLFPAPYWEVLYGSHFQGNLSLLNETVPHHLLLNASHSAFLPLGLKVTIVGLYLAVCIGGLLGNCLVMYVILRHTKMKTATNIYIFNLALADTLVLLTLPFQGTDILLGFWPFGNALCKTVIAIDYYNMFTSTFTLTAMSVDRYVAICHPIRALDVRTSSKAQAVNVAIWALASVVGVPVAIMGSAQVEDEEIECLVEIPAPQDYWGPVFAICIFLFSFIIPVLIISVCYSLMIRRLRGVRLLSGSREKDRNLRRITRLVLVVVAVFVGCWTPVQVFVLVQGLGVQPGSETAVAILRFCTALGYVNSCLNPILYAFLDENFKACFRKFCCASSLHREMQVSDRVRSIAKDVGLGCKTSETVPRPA
protocol-description: In vivo receptor occupancy (LC/MS/MS, RO Tracer) in hypothalamus
cond: oral 3 mg/kg dose after 6 hr.
Just the number please, in %, no unit attached.

Query: receptor occupancy at 3 mg/kg; subject: OCc1nn(-c2c(F)cccc2F)cc1CN1CCC2(CC1)OCC(F)(F)c1cc(Cl)sc12 [Example 50] 81

Same question for CC(=O)c1cccc(F)c1-n1cc(CN2CCC3(CC2)OCC(F)(F)c2cc(Cl)sc23)c(C)n1 [Example 40] please. 70

Same question for Cc1nn(-c2c(F)cccc2-n2ccnc2C)cc1CN1CCC2(CC1)OCC(F)(F)c1cc(Cl)sc12.O=C(O)C(O)C(O)C(=O)O [Example 47] please. 84

Same question for Cc1nn(-c2c(F)cccc2F)cc1CN1CCC2(CC1)OCC(F)(F)c1cc(Cl)sc12.O=C(O)C(O)C(O)C(=O)O [Example 2] please. 76

====

test-system: 5-HT1D (Homo sapiens)
protocol-description: Radioligand binding selectivity
pKi: −log10 of the molar value.
endpoint: pKi

Query: pKi; subject: Cc1nn(-c2c(F)cccc2F)cc1CN1CCC2(CC1)OCC(F)(F)c1cc(Cl)sc12.O=C(O)C(O)C(O)C(=O)O < 5.10

====

test-system: 5-HT2A (Homo sapiens, UniProt P28223)
Sequence (P28223 whole entry, species assumed): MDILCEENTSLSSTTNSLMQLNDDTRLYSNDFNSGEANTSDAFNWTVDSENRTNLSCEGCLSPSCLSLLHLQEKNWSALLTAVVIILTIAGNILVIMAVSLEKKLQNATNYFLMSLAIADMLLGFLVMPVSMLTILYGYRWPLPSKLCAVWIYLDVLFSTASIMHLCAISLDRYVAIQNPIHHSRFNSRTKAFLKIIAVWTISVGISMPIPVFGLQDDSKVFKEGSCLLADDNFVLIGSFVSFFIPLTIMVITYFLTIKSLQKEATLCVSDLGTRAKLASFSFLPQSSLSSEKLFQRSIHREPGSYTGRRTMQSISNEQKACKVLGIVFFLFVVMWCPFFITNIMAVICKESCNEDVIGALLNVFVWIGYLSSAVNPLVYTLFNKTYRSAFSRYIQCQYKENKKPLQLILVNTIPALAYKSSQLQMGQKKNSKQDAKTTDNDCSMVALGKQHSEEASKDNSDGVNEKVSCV
protocol-description: Radioligand binding selectivity
endpoint: Ki

Query: Ki; subject: Cc1nn(-c2c(F)cccc2F)cc1CN1CCC2(CC1)OCC(F)(F)c1cc(Cl)sc12.O=C(O)C(O)C(O)C(=O)O > 7.18 µM

====

test-system: 5-HT4 (Homo sapiens, UniProt Q13639)
Sequence (Q13639 whole entry, species assumed): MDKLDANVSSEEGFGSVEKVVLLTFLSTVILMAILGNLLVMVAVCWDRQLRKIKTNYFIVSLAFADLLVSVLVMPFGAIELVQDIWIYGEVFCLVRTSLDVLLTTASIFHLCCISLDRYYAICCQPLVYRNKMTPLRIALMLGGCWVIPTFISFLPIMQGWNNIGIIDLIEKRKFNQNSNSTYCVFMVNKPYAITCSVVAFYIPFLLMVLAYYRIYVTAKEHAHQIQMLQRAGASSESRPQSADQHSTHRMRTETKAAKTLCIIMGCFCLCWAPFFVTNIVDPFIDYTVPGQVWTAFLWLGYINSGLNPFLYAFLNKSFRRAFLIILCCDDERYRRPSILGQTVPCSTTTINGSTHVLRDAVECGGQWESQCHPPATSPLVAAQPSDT
protocol-description: Radioligand binding selectivity
cond: 5-HT4; read-out: Ki
endpoint: Ki

Query: Ki; subject: OCc1nn(-c2c(F)cccc2F)cc1CN1CCC2(CC1)OCC(F)(F)c1cc(Cl)sc12 > 4.12 µM

====

test-system: Muscarinic M5 (Homo sapiens)
Sequence (P08912 1-532): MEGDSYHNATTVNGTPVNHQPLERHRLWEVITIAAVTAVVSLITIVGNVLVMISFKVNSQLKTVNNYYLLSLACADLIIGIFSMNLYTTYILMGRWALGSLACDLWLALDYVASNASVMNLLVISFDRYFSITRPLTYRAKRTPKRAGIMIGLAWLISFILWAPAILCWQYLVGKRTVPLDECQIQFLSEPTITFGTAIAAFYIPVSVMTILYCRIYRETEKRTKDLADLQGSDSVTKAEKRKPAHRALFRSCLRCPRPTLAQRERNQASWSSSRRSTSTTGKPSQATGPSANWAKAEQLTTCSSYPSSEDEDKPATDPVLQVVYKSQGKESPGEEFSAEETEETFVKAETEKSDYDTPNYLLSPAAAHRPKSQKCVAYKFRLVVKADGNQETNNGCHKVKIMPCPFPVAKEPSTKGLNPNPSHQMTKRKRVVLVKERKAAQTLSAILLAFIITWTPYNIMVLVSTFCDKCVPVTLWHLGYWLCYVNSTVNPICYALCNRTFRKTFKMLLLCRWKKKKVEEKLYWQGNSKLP
endpoint: pKi
Answer as the number alone; pKi is minus log10 of concentration in mol/L.

Provide the documented pKi with Muscarinic M5 (Homo sapiens) as the system for Cc1nn(-c2c(F)cccc2F)cc1CN1CCC2(CC1)OCC(F)(F)c1cc(Cl)sc12.O=C(O)C(O)C(O)C(=O)O 5.55

====

test-system: UniProt:P41145
protocol-description: Radioligand binding selectivity
cond: Kappa Opioid; read-out: Ki
endpoint: Ki

Query: Ki; subject: CC(=O)c1cccc(F)c1-n1cc(CN2CCC3(CC2)OCC(F)(F)c2cc(Cl)sc23)c(C)n1 [Example 40] > 430 nM

====

test-system: 5-HT7 (Homo sapiens)
protocol-description: Radioligand binding selectivity
endpoint: Ki

Query: Ki; subject: Cc1nn(-c2c(F)cccc2F)cc1CN1CCC2(CC1)OCC(F)(F)c1cc(Cl)sc12.O=C(O)C(O)C(O)C(=O)O [Example 2] > 3.98 µM

====

test-system: UniProt P28223
protocol-description: Radioligand binding selectivity
cond: 5-HT2A; read-out: Ki
pKi: −log10 of the molar value.
endpoint: pKi

Query: pKi; subject: OCc1nn(-c2c(F)cccc2F)cc1CN1CCC2(CC1)OCC(F)(F)c1cc(Cl)sc12 < 5.30

====

test-system: Mu Opioid (Homo sapiens)
protocol-description: Radioligand binding selectivity
cond: Mu Opioid; read-out: Ki
pKi: −log10 of the molar value.
endpoint: pKi

Query: pKi; subject: CC(=O)c1cccc(F)c1-n1cc(CN2CCC3(CC2)OCC(F)(F)c2cc(Cl)sc23)c(C)n1 < 6.35

====

test-system: UniProt P11229
Sequence (P11229 whole entry): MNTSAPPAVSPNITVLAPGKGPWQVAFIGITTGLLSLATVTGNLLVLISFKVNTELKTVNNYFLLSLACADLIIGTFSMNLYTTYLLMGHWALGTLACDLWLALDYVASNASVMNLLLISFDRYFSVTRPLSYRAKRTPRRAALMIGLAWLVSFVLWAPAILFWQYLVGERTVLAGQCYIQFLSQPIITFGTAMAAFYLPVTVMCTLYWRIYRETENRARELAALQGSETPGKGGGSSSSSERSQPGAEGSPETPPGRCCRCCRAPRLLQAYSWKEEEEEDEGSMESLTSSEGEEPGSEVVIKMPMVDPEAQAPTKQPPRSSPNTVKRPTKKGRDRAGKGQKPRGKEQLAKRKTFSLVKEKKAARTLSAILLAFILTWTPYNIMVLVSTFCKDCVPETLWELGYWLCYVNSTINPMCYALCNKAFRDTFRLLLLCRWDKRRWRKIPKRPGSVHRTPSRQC
endpoint: Ki (nM)
Just the number please, in nM, no unit attached.

Provide the documented Ki with UniProt P11229 as the system for Cc1nn(-c2c(F)cccc2F)cc1CN1CCC2(CC1)OCC(F)(F)c1cc(Cl)sc12.O=C(O)C(O)C(O)C(=O)O [Example 2] 1380

====

test-system: UniProt:P08172
pKi: −log10 of the molar value.
endpoint: pKi

Query: pKi; subject: Cc1nn(-c2c(F)cccc2F)cc1CN1CCC2(CC1)OCC(F)(F)c1cc(Cl)sc12.O=C(O)C(O)C(O)C(=O)O < 5.10

====

test-system: Muscarinic M4 (Homo sapiens)
Sequence (P08173 whole entry): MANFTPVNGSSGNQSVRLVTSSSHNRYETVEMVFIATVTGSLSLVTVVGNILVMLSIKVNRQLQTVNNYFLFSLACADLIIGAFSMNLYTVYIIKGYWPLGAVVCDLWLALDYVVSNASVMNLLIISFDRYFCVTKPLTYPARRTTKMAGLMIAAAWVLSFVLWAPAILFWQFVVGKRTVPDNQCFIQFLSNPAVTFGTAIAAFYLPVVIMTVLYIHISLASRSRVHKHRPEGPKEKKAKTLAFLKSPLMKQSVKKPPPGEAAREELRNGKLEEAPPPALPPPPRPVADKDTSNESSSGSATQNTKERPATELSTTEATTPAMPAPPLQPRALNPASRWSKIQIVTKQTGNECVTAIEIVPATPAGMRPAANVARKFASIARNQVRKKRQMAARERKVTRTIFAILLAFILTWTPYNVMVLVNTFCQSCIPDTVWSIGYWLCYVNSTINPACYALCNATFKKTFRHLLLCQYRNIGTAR
endpoint: Ki (µM)
Just the number please, in µM, no unit attached.

Provide the documented Ki with Muscarinic M4 (Homo sapiens) as the system for Cc1nn(-c2c(F)cccc2F)cc1CN1CCC2(CC1)OCC(F)(F)c1cc(Cl)sc12.O=C(O)C(O)C(O)C(=O)O 6.36

====

test-system: 5-HT1B (Homo sapiens, UniProt P28222)
protocol-description: Radioligand binding selectivity
pKi: −log10 of the molar value.
endpoint: pKi

Query: pKi; subject: Cc1nn(-c2c(F)cccc2F)cc1CN1CCC2(CC1)OCC(F)(F)c1cc(Cl)sc12.O=C(O)C(O)C(O)C(=O)O [Example 2] < 5.45

====

test-system: cloned human ORL1/nociceptin receptors (Homo sapiens, UniProt P41146)
Construct: expressed in transfected cells
Sequence (P41146 whole entry): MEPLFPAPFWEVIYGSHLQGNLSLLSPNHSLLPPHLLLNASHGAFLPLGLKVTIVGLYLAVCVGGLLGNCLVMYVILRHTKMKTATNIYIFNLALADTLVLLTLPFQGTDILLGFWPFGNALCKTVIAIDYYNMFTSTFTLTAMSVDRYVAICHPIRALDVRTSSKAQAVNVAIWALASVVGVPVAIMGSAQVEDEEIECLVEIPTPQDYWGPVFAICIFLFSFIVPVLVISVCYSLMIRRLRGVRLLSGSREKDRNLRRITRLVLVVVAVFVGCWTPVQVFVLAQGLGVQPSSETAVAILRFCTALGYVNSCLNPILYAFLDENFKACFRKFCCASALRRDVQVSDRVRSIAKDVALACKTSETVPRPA
protocol-description: Functional blockade of agonist-mediated G-protein activation, GTP-γ-[35S] binding
Type: biochemical
endpoint: Kb (pM)
Just the number please, in pM, no unit attached.

These recorded examples may help you get a feel for the data.
Cc1nn(-c2c(F)cccc2-n2ccnc2C)cc1CN1CCC2(CC1)OCC(F)(F)c1cc(Cl)sc12.O=C(O)C(O)C(O)C(=O)O [Example 47]; 150
Cc1nn(-c2c(F)cccc2F)cc1CN1CCC2(CC1)OCC(F)(F)c1cc(Cl)sc12.O=C(O)C(O)C(O)C(=O)O [Example 2]; 430
OCc1nn(-c2c(F)cccc2F)cc1CN1CCC2(CC1)OCC(F)(F)c1cc(Cl)sc12 [Example 50]; 540

Query: Kb; subject: CC(=O)c1cccc(F)c1-n1cc(CN2CCC3(CC2)OCC(F)(F)c2cc(Cl)sc23)c(C)n1 [Example 40] 300

====

test-system: Muscarinic M3 (Homo sapiens, UniProt P20309)
Sequence (P20309 whole entry): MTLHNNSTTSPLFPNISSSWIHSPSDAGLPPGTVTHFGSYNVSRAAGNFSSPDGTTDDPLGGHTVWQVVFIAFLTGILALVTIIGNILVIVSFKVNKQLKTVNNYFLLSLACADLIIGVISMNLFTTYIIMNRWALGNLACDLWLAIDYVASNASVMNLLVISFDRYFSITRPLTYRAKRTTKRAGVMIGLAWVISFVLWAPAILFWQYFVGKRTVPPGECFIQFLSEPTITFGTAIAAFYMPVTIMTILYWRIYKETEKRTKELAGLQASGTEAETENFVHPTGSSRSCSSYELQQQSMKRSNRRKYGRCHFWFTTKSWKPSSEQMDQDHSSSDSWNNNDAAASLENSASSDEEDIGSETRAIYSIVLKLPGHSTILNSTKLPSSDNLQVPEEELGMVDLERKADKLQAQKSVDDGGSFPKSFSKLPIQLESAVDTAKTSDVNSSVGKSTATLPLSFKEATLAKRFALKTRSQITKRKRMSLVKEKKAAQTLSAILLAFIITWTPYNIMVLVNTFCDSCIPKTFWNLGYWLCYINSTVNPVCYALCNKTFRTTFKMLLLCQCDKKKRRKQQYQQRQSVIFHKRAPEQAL
endpoint: Ki

Query: Ki; subject: Cc1nn(-c2c(F)cccc2F)cc1CN1CCC2(CC1)OCC(F)(F)c1cc(Cl)sc12.O=C(O)C(O)C(O)C(=O)O > 24.2 µM
